# inhibition at 1 µM per record follows
Molecular target: 5-hydroxytryptamine (5-HT) reuptake sites (Rattus norvegicus, UniProt P31652)
Construct: Frontal cortical tissue from the brains of male Sprague-Dawley rats; from tissue; host or cells: rat brain frontal cortex (crude synaptosomes in A2, washed membranes in A5)
Sequence (P31652 whole entry): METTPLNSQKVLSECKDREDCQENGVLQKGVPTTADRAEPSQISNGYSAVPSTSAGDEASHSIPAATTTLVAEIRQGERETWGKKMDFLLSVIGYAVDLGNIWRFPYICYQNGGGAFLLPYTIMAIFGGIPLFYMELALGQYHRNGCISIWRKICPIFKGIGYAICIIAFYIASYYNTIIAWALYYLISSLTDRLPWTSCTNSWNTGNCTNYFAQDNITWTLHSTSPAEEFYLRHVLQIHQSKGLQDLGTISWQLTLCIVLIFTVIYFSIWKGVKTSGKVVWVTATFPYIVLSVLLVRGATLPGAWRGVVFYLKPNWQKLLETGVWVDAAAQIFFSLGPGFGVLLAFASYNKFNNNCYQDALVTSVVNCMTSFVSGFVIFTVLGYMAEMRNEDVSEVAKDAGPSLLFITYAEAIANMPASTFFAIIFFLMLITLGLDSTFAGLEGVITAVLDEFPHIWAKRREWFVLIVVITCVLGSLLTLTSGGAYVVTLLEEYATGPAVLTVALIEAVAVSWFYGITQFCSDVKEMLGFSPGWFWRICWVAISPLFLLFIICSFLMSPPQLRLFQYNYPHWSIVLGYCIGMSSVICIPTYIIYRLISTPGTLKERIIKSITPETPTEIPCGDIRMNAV
Experiment: displacement of [3H]paroxetine from 5-HT reuptake sites, frontal cortical membranes
Format: binding
Settings: 10^-6 M test compound, [3H]paroxetine 30 pM, one test only, read-out: 5-HT uptake (% displacement of specific binding of tritiated ligand)
Counter-ions that a name gives are not always drawn.
State the answer as a number, implicitly in %.

Compound: Clc1ccc(C2(c3csc(=NCC4CC4)n3CC3CC3)CCC2)cc1Cl [Example 21, hydrobromide]
inhibition at 1 µM / %: 103
--
Compound: COCCC1=C(C2(c3ccc(Cl)c(Cl)c3)CCC2)N2CCN=C2S1 [Example 8, hydrobromide]
inhibition at 1 µM / %: 62
--
Compound: CCCN=c1scc(C2(c3ccc4ccccc4c3)CCC2)n1CCC [Example 38, hydrobromide]
inhibition at 1 µM / %: 102
--
Compound: Clc1ccc(C2(C3=C(c4ccccc4)SC4=NCCN43)CCC2)cc1Cl [Example 9, hydrobromide]
inhibition at 1 µM / %: 75
--
Compound: COc1ccc(CCN=c2scc(C3(c4ccc(Cl)c(Cl)c4)CCC3)n2CCc2ccc(OC)c(OC)c2)cc1OC [Example 33, hydrobromide]
inhibition at 1 µM / %: 63

Value lookup for inhibition at 1 µM; key = c1ccc(CN=c2scc(C3(c4ccc5ccccc5c4)CCC3)n2Cc2ccccc2)cc1 [Example 44, hydrobromide]
72

====

Molecular target: 5-hydroxytryptamine (5-HT) reuptake sites (Rattus norvegicus, UniProt P31652)
Construct: Frontal cortical tissue from the brains of male Sprague-Dawley rats; from tissue; host or cells: rat brain frontal cortex (crude synaptosomes in A2, washed membranes in A5)
Test: displacement of [3H]paroxetine from 5-HT reuptake sites, frontal cortical membranes
Assay type: binding
Settings: 10^-6 M test compound, [3H]paroxetine 30 pM, one test only, read-out: 5-HT uptake (% displacement of specific binding of tritiated ligand)
Where a name gives a salt, the structure may show the parent alone.
Attribute measured: inhibition at 1 µM (%)
Give your result in % as a bare value.

Solved entries (count: 4):
Compound: C=CCN=c1scc(C2(c3ccc(Cl)c(Cl)c3)CCC2)n1CC=C [Example 20, hydrobromide]
inhibition at 1 µM [%]: 104

Compound: CC(C)N=c1scc(C2(c3ccc4ccccc4c3)CCC2)n1C(C)C [Example 39, hydrobromide]
inhibition at 1 µM [%]: 100

Compound: CC(C)N=c1scc(C2(c3ccc(Cl)c(Cl)c3)CCC2)n1C(C)C [Example 17, hydrobromide]
inhibition at 1 µM [%]: 95

Compound: c1ccc2cc(C3(c4csc(=NCC5CC5)n4CC4CC4)CCC3)ccc2c1 [Example 43, hydrobromide]
inhibition at 1 µM [%]: 101

// returns reported inhibition at 1 µM for input CCCCN=c1scc(C2(c3ccc4ccccc4c3)CCC2)n1CCCC [Example 40, hydrobromide]
97

====

Target: dopamine (DA) reuptake sites (Rattus norvegicus, UniProt P23977)
Construct: Striatal tissue from the brains of male Charles River rats weighing 150-250 g; from tissue; host or cells: rat brain striatum (crude synaptosomes in A1, washed membranes in A4)
Sequence (P23977 whole entry): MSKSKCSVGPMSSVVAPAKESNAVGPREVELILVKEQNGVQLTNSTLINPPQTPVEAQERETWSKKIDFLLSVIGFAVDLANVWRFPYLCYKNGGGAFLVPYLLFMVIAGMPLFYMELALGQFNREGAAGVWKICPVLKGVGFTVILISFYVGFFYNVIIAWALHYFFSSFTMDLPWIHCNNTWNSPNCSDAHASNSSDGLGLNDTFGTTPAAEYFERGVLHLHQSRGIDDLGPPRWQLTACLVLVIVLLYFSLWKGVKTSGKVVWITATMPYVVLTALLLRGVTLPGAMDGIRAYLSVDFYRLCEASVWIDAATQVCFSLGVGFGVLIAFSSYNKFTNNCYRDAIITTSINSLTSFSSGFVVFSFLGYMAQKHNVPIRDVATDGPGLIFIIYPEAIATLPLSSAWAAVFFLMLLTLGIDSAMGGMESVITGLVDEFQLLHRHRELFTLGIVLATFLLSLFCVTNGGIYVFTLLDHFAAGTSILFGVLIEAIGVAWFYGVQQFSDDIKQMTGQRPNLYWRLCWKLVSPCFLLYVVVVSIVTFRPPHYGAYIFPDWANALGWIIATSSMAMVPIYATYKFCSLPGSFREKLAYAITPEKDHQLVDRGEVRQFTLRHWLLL
Assay: displacement of [3H]GBR 12935 from dopamine reuptake sites, striatal membranes
Assay type: binding
Conditions: 10^-6 M test compound, [3H]GBR 12935 1 nM, one test only, read-out: DA uptake (% displacement of specific binding of tritiated ligand)
Counter-ions that a name gives are not always drawn.
// values below are reported inhibition at 1 µM
Give the number; % is assumed, so skip it.

Compound: CCCN=c1scc(C2(c3ccc4ccccc4c3)CCC2)n1CCC [Example 38, hydrobromide]
Value observed: 111

Look up inhibition at 1 µM: Clc1ccc(C2(C3=CSC4=NCCN34)CCCC2)cc1 [Example 71, hydrobromide]
96

====

Quick reference for inhibition at 1 µM among some compounds
Biological target: 5-hydroxytryptamine (5-HT) reuptake sites (Rattus norvegicus, UniProt P31652)
Construct: Frontal cortical tissue from the brains of male Sprague-Dawley rats; from tissue; host or cells: rat brain frontal cortex (crude synaptosomes in A2, washed membranes in A5)
Assay: displacement of [3H]paroxetine from 5-HT reuptake sites, frontal cortical membranes
Format: binding
Conditions: 10^-6 M test compound, [3H]paroxetine 30 pM, one test only, read-out: 5-HT uptake (% displacement of specific binding of tritiated ligand)
Where a name gives a salt, the structure may show the parent alone.

Here's what some known entries look like.
Compound: COc1ccc(CCN=c2scc(C3(c4ccc5ccccc5c4)CCC3)n2CCc2ccc(OC)c(OC)c2)cc1OC [Example 55, hydrobromide]
inhibition at 1 µM: < 50%
--
Compound: Fc1ccc(CN=c2scc(C3(c4ccc(Cl)c(Cl)c4)CCC3)n2Cc2ccc(F)cc2)cc1 [Example 23, hydrobromide]
inhibition at 1 µM: < 50%
--
Compound: FC(F)(F)c1cccc(N=c2scc(C3(c4ccc(Cl)c(Cl)c4)CCC3)n2-c2cccc(C(F)(F)F)c2)c1 [Example 30, hydrobromide]
inhibition at 1 µM: < 50%
--
Compound: CCCCN=c1scc(C2(c3ccc(Oc4ccccc4)cc3)CCC2)n1CCCC [Example 59, hydrobromide]
inhibition at 1 µM: < 50%

Which value of inhibition at 1 µM has been reported for Clc1ccc(C2(c3csc(=NCCc4ccccc4)n3CCc3ccccc3)CCC2)cc1Cl [Example 24, hydrobromide] in the records?
< 50%

Any idea what its inhibition at 1 µM is? The compound is Clc1ccc(C2(c3csc(=Nc4ccccc4)n3-c3ccccc3)CCC2)cc1Cl [Example 27, hydrobromide]
< 50%

Would you mind telling me what inhibition at 1 µM value was observed for Cc1ccc(N=c2scc(C3(c4ccc5ccccc5c4)CCC3)n2-c2ccc(C)cc2)cc1 [Example 50, hydrobromide] ?
< 50%

Bench note: what inhibition at 1 µM did CCCCN=c1scc(C(C)(C)c2ccc(Cl)cc2)n1CCCC [Example 62, hydrobromide] show?
< 50%

====

Biological target: 5-hydroxytryptamine (5-HT) reuptake sites (Rattus norvegicus, UniProt P31652)
Construct: Frontal cortical tissue from the brains of male Sprague-Dawley rats; from tissue; host or cells: rat brain frontal cortex (crude synaptosomes in A2, washed membranes in A5)
Test: displacement of [3H]paroxetine from 5-HT reuptake sites, frontal cortical membranes
Assay type: binding
Conditions: 10^-6 M test compound, [3H]paroxetine 30 pM, one test only, read-out: 5-HT uptake (% displacement of specific binding of tritiated ligand)
Where a name gives a salt, the structure may show the parent alone.
A collection of compounds and their measured inhibition at 1 µM

Solved cases (2 shown):
Compound: Brc1ccc(C2(C3=CSC4=NCCN34)CCC2)cc1 [Example 70, hydrobromide]
Tested on: 5-hydroxytryptamine (5-HT) reuptake sites (Rattus norvegicus, UniProt P31652)
inhibition at 1 µM: < 50%
//
Compound: C1=C(C2(c3ccccc3)CCCCC2)N2CCN=C2S1 [Example 72, hydrobromide]
Tested on: 5-hydroxytryptamine (5-HT) reuptake sites (Rattus norvegicus, UniProt P31652)
inhibition at 1 µM: < 50%

Turning to the following compound.
What value of measured inhibition at 1 µM is listed for CCCCN=c1scc(C2(c3ccc(Cl)cc3)CCC2)n1CCCC [Example 56, hydrobromide] ?
< 50%

====

Target: dopamine (DA) reuptake sites (Rattus norvegicus)
Construct: Striatal tissue from the brains of male Charles River rats weighing 150-250 g; from tissue; host or cells: rat brain striatum (crude synaptosomes in A1, washed membranes in A4)
Experiment: displacement of [3H]GBR 12935 from dopamine reuptake sites, striatal membranes
Format: binding
Details: 10^-6 M test compound, [3H]GBR 12935 1 nM, one test only, read-out: DA uptake (% displacement of specific binding of tritiated ligand)
Where a name gives a salt, the structure may show the parent alone.
Attribute measured: inhibition at 1 µM (%)
Numbers only here, please. The scale is %.

// below: answered compounds
Compound: CC(C)CN=c1scc(C2(c3ccc4ccccc4c3)CCC2)n1CC(C)C [Example 41]
inhibition at 1 µM, %: 107

Compound: C1=C(C2(c3ccccc3)CCCCC2)N2CCN=C2S1 [Example 72, hydrobromide]
inhibition at 1 µM, %: 70

Compound: CN=c1scc(C2(c3ccc(Cl)c(Cl)c3)CCC2)n1C [Example 14, hydrobromide]
inhibition at 1 µM, %: 103

// inhibition at 1 µM lookup, key: Clc1ccc(C2(c3csc(=NCc4cccnc4)n3Cc3cccnc3)CCC2)cc1Cl [Example 25, hydrobromide]
108

I'd like to know its inhibition at 1 µM. The compound in question is COc1ccc(CCN=c2scc(C3(c4ccc(Cl)c(Cl)c4)CCC3)n2CCc2ccc(OC)c(OC)c2)cc1OC [Example 33, hydrobromide]
99

Need inhibition at 1 µM of c1coc(CN=c2scc(C3(c4ccc5ccccc5c4)CCC3)n2Cc2ccco2)c1 [Example 48] , thanks.
101

Suppose we examine the compound CN=c1scc(C2(c3ccc4ccccc4c3)CCC2)n1C [Example 36, hydrobromide] ; what inhibition at 1 µM value has been reported?
108

Could you share which inhibition at 1 µM value was measured for Clc1ccc(C2(c3csc(=NCC4CC4)n3CC3CC3)CCC2)cc1Cl [Example 21, hydrobromide] ?
108

Param item = C1=C(C2(c3cc4ccccc4s3)CCC2)N2CCN=C2S1 [Example 12, hydrobromide] ; retrieve measured inhibition at 1 µM.
121

Would you mind telling me what inhibition at 1 µM value was observed for CCCCN=c1scc(C2(c3ccc4ccccc4c3)CCC2)n1CCCC [Example 40, hydrobromide] ?
113

Looking for the measured inhibition at 1 µM of CC(C)N=c1scc(C2(c3ccc4ccccc4c3)CCC2)n1C(C)C [Example 39, hydrobromide] , can you help?
108
